Would you mind telling me the reported log10 of IC50 of each entry?
# assay-system: SARS-CoV-2 NSP3 Mac1 (Severe acute respiratory syndrome coronavirus 2)
# experiment-notes: biochemical
# Parameters: HTRF ADPr-peptide displacement assay with Mac1, dose-response IC50
# test-settings: read-out: IC50 [µM] / 0.5, 1.2, 1.4
The common logarithm of IC50 in µM is what is listed.

Answered cases to consult:
>>> observed_result("O=C(NC1c2cccc(O)c2CC1C(=O)O)c1cnc2c(c1)CCCN2 (stereo not drawn) [Z8539_0006, 8539_0006]")
2.23
>>> observed_result("O=C(NC1c2cccc(O)c2CC1C(=O)O)c1cnc(NC2CCOCC2)cn1 (stereo not drawn) [Z8539_0007, 8539_0007]")
0.81
>>> observed_result("O=C(NC1c2cccc(O)c2CC1C(=O)O)c1ccc(NCC2CC2)nc1 (stereo not drawn) [Z8539_0009, 8539_0009]")
1.23
>>> observed_result("O=C1COc2cc(C(=O)NC3c4cccc(O)c4CC3C(=O)O)ccc2N1 (stereo not drawn) [Z8539_0014, 8539_0014]")
1.45
>>> observed_result("O=C(Nc1ccc(C(=O)N[C@H]2c3ccccc3CC[C@H]2C(=O)O)cc1)NC1CC1 [Z8539_0030, 8539_0030]")
0.77

Read the next record carefully.
*Q* Record O=C(Nc1ccc(C(=O)NC2c3ccccc3CC2C(=O)O)cc1)NC1CC1 (stereo not drawn) [Z8539_0029, 8539_0029] : what is its log10 of IC50 with SARS-CoV-2 NSP3 Mac1 (Severe acute respiratory syndrome coronavirus 2)?
*A* 0.68
